System: sedge, umbrella (small-flower umbrella sedge, Cyperus difformis)
Assay: Test B flooded paddy test, umbrella sedge
Type: in vivo
Details: 250 g ai/ha, Flood; visual rating after 13 to 15 days; scale 0 to 100, 0 is no effect, 100 is complete control
Assignment: determine reported Plant response rating, Sedge, Umbrella for the given compounds.

Problem: Value lookup for Plant response rating, Sedge, Umbrella; key = Fc1cccc(Oc2ncc(Cl)cn2)c1OCCCC(F)(F)F
Solution: 70

Problem: Value lookup for Plant response rating, Sedge, Umbrella; key = N#Cc1cccc(Oc2ncc(Cl)cn2)c1OCCCCC(F)(F)F
Solution: 100

Problem: Value lookup for Plant response rating, Sedge, Umbrella; key = FC(F)(F)CCCCOc1c(Br)cccc1Oc1ncc(Cl)cn1
Solution: 95

Problem: Value lookup for Plant response rating, Sedge, Umbrella; key = Cc1cccc(Oc2ncc(Cl)cn2)c1OCCCC#N
Solution: 50

Problem: Value lookup for Plant response rating, Sedge, Umbrella; key = N#Cc1cccc(Oc2ncc(Cl)cn2)c1OCC(F)F
Solution: 0

Problem: Value lookup for Plant response rating, Sedge, Umbrella; key = FC(F)(F)c1ccc(COc2c(Br)cccc2Oc2ncc(Cl)cn2)cc1
Solution: 0

Problem: Value lookup for Plant response rating, Sedge, Umbrella; key = Cl/C=C/COc1c(Cl)cccc1Oc1ncc(Cl)cn1
Solution: 70

Problem: Value lookup for Plant response rating, Sedge, Umbrella; key = CCC(=O)COc1c(Br)cccc1Oc1ncc(Cl)cn1
Solution: 70

* * *

System: blackgrass (Alopecurus myosuroides)
Assay: Test A postemergence, blackgrass
Assay type: in vivo
Conditions: 125 g ai/ha, postemergence; 0 to 100 scale, 0 is no effect, 100 is complete control; approximately 10 days
Assignment: determine reported Plant response rating, Blackgrass for the given compounds.
The answer should be a number; do not append a unit.

Problem: Value lookup for Plant response rating, Blackgrass; key = N#Cc1cccc(Oc2ncc(Cl)cn2)c1OCC(=O)CCC(F)(F)F
Solution: 0

Problem: Value lookup for Plant response rating, Blackgrass; key = N#Cc1cccc(Oc2ncc(Cl)cn2)c1OC/C=C/Cl
Solution: 30

Problem: Value lookup for Plant response rating, Blackgrass; key = CCCOc1c(C#N)cccc1Oc1ncc(Cl)cn1
Solution: 10

Problem: Value lookup for Plant response rating, Blackgrass; key = Cl/C=C/COc1c(I)cccc1Oc1ncc(Cl)cn1
Solution: 60

Problem: Value lookup for Plant response rating, Blackgrass; key = CCC(=O)COc1c(Br)cccc1Oc1ncc(Cl)cn1
Solution: 10

* * *

Assignment: determine reported Plant response rating, Kochia for the given molecules.
Test system: kochia (Kochia scoparia)
Assay: Test A postemergence, kochia
Format: in vivo
Conditions: 125 g ai/ha, postemergence; 0 to 100 scale, 0 is no effect, 100 is complete control; approximately 10 days
The answer should be a number; do not append a unit.

Problem: Value lookup for Plant response rating, Kochia; key = N#Cc1cccc(Oc2ncc(Cl)cn2)c1OCC(=O)C(F)(F)C(F)(F)F
Solution: 20

Problem: Value lookup for Plant response rating, Kochia; key = Cc1cccc(Oc2ncc(Cl)cn2)c1OCCCC#N
Solution: 30

Problem: Value lookup for Plant response rating, Kochia; key = O=C(CCC(F)(F)F)COc1c(Br)cccc1Oc1ncc(Cl)cn1
Solution: 60

Problem: Value lookup for Plant response rating, Kochia; key = FC(F)(F)/C=C/COc1c(I)cccc1Oc1ncc(Cl)cn1
Solution: 90

Problem: Value lookup for Plant response rating, Kochia; key = N#Cc1cccc(Oc2ncc(Cl)cn2)c1OCCCF
Solution: 80

Problem: Value lookup for Plant response rating, Kochia; key = CC(C)CCOc1c(Br)cccc1Oc1ncc(Cl)cn1
Solution: 90

Problem: Value lookup for Plant response rating, Kochia; key = CCC(=O)COc1c(Br)cccc1Oc1ncc(Cl)cn1
Solution: 10

Problem: Value lookup for Plant response rating, Kochia; key = N#Cc1cccc(Oc2ncc(Cl)cn2)c1OCC(=O)CCC(F)(F)F
Solution: 0

Problem: Value lookup for Plant response rating, Kochia; key = FC(F)COc1c(Br)cccc1Oc1ncc(Cl)cn1
Solution: 100

Problem: Value lookup for Plant response rating, Kochia; key = N#CCCCOc1c(C#N)cccc1Oc1ncc(Cl)cn1
Solution: 90
